- Assay Info: Partition coefficient (logP)
- Assay type: physicochemical
- Condition Details: octanol/water
Parameter Measured: logP
Form field (numeric): enter value without unit.

So, `CCN(CC)CCNC(=O)c1ccc(B2OCCCO2)cc1` ? Its logP was -1
